Target: human recombinant IL-5 protein with a histidine tag at carboxyl terminal (human) (UniProt P05113)
Test: cell-based or functional assay
observable: EC50 for neutralizing IL-5-induced TF-1 cell proliferation
Form field (numeric): enter value without unit.

Worked cases, answers included:
Fc fusion protein of anti-IL-5 single-domain antibody 4B12 (Fc fusion, not shown: a dimerising Fc or GST) chain (part 1 of 2): QVQLVESGGGSVQPGGSLRLSCAASGNTFSFSTYCMGWFRQSPGKEREGSLATIYDGSTAYAGSVKGRFTVSVDNAKNILYLQMNNLKPEDTAMYYCASAKYCMFWSDPSYWGQGTQVTVSS chain (part 2 of 2): HHHHHH : 0.196
humanized Fc-fused single-domain antibody 1B3-V3 (Fc fusion, not shown: a dimerising Fc or GST) chain (part 1 of 2): QVQLVESGGGSVQAGGSLRLSCAASGITASTSCMGWFRQSPGKEREGSLATIYDASTSYADSVKGRFTISVDNAKNILYLQMNNLKPEDTAMYYCAAARYCMFWSHPSYWGQGTQVTVSS chain (part 2 of 2): HHHHHH : 0.219
Tab2 (control antibody 2), reslizumab (antibody, INN chains, looked up, V domains shown) VH: EVQLVESGGGLVQPGGSLRLSCAVSGLSLTSNSVNWIRQAPGKGLEWVGLIWSNGDTDYNSAIKSRFTISRDTSKSTVYLQMNSLRAEDTAVYYCAREYYGYFDYWGQGTLVTVSS VL: DIQMTQSPSSLSASVGDRVTITCLASEGISSYLAWYQQKPGKAPKLLIYGANSLQTGVPSRFSGSGSATDYTLTISSLQPEDFATYYCQQSYKFPNTFGQGTKVEVK : 0.0664
humanized Fc-fused single-domain antibody 1B3-V5 (Fc fusion, not shown: a dimerising Fc or GST) chain (part 1 of 2): QVQLVESGGGSVQAGGSLRLSCAASGITASTSCMGWFRQSPGKEREGSLATIYDGSTSYADSVKGRFTISRDNSKNILYLQMNNLRAEDTAVYYCAAARYCMFWSHPSYWGQGTQVTVSS chain (part 2 of 2): HHHHHH : 0.274

Per the record, Tab1 (control antibody 1), mepolizumab (antibody, INN chains, looked up, V domains shown) VH: QVTLRESGPALVKPTQTLTLTCTVSGFSLTSYSVHWVRQPPGKGLEWLGVIWASGGTDYNSALMSRLSISKDTSRNQVVLTMTNMDPVDTATYYCARDPPSSLLRLDYWGRGTPVTVSS VL: DIVMTQSPDSLAVSLGERATINCKSSQSLLNSGNQKNYLAWYQQKPGQPPKLLIYGASTRESGVPDRFSGSGSGTDFTLTISSLQAEDVAVYYCQNVHSFPFTFGGGTKLEIK has EC50 for neutralizing IL-5-induced TF-1 cell proliferation of 0.234

Item: Fc fusion protein of anti-IL-5 single-domain antibody 4G8 (Fc fusion, not shown: a dimerising Fc or GST) chain (part 1 of 2): QVQLVESGGGSVQAGGSLRLSCAASGITSSTSCMGWFRQSPGKEREGSLATIYDGAISYADSVKGRFTISVDNAKNILYLQMNNLKPEDTAMYYCAAAKYCMFWSDPSYWGQGTQVTVSS chain (part 2 of 2): HHHHHH | EC50 for neutralizing IL-5-induced TF-1 cell proliferation: 0.176

Reported EC50 for neutralizing IL-5-induced TF-1 cell proliferation of Fc fusion protein of anti-IL-5 single-domain antibody 4D5 (Fc fusion, not shown: a dimerising Fc or GST) chain (part 1 of 2): QVQLVESGGGSVQAGGSLRLSCAASGNTFSTSTYCMGWFRQSPGKEREGSLATIYDGSTAYAGSVKGRFTISVDNAKNILYLQMNNLKPEDTAMYYCAAAKYCMFWSDPSYWGQGTQVTVSS chain (part 2 of 2): HHHHHH : 0.427
